Cited source: ChEMBL document CHEMBL1201862

test system: SNB-19; experiment: NCI tumour cell line growth inhibition, 48 h
Activity calls are given as the source filed them. Rule as the data show it: active = GI50 up to about 1.1 µM and inactive = higher.
Write down the outcome that applies. Available outcomes: active, inactive

Use these answered entries as a reference point.
>  <COMPOUND>
C=C1CC(CN2CCC(=O)NC2=O)(c2ccccc2)OC1=O (configuration not stated)

>  <TESTED ON>
SNB-19

>  <LABEL CLASS>
inactive

$$$$
>  <COMPOUND>
O=P(O)(O)CN1CCNCCN(CP(=O)(O)O)CC1

>  <TESTED ON>
SNB-19

>  <LABEL CLASS>
inactive

$$$$

Qu. For C=C1C(=O)OC2C(C)C3C=CC(=O)[C@@]3(C)C(OC(=O)/C(C)=C/C)C1[C@@H]2OC(C)=O (some centres not stated) , which call appears in the assay record?
Ans. inactive

Qu. For "CCN(CC)CC(C)(C)C(=O)/C=C/c1ccc(/C=C/C(=O)C(C)(C)CN(CC)CC)cc1" , which call appears in the assay record?
Ans. inactive

Qu. For "COc1cc(C#CC(=O)OC/C=C/c2ccc3c(c2)OCO3)cc(OC)c1OC" , which call appears in the assay record?
Ans. inactive

====

test system: RXF 631; test: NCI tumour cell line growth inhibition, 48 h
Active and inactive are the calls of the source. No stated cut-off is given here; in the data, active = GI50 up to about 1.1 µM and inactive = higher.
Write down the outcome that applies. Available outcomes: active, inactive

>  <COMPOUND>
C1=CC(=P(c2ccccc2)(c2ccccc2)c2ccccc2)C=C1

>  <LABEL CLASS>
inactive

$$$$
>  <COMPOUND>
Nc1nc(O)c2c(ncn2CC(O)CO)n1 (stereo unspecified)

>  <LABEL CLASS>
inactive

$$$$
>  <COMPOUND>
CCc1ccccc1NC(=O)C1=C(C)NC(C)=C(C(=O)Nc2ccccc2CC)C1c1cccc([N+](=O)[O-])c1

>  <LABEL CLASS>
inactive

$$$$
>  <COMPOUND>
CN(C)C(=S)SSC(=S)N(C)C [THIRAM]

>  <LABEL CLASS>
inactive

$$$$
>  <COMPOUND>
CCCCCCCCCC(=O)N[C@H]1CCc2cc(OC)c(OC)c(OC)c2-c2ccc(SC)c(=O)cc21

>  <LABEL CLASS>
active

$$$$
>  <COMPOUND>
O=C(Nc1cccc(Cl)c1)c1cc2cc(/N=N/c3ccc(Br)cc3)ccc2oc1=O

>  <LABEL CLASS>
inactive

$$$$
>  <COMPOUND>
C(=C\C(Sc1ccccc1)c1ccccc1)/NNC1=NN=C(c2ccccc2)C(c2ccccc2)N1 (stereo unspecified)

>  <LABEL CLASS>
inactive

$$$$
>  <COMPOUND>
CC(=O)O[C@@H]1CC[C@@]2(C)C(=O)C34C[C@@]5(C)C([C@@H](C)CCCC(C)C)CCC5(C)[C@](O)(O3)C(=O)[C@H]4C2C1(C)C (stereo partly specified)

>  <LABEL CLASS>
inactive

$$$$

Qu. For "Cc1cc2c(C)nn(Cc3ccc(Cl)cc3)c2c(C#N)c1C" , which call appears in the assay record?
Ans. inactive

Qu. For "[O-][S+](c1ccc(O)cc1)c1ccc(O)cc1" , which call appears in the assay record?
Ans. inactive

Qu. For "CC(=O)N1C(=O)C(=O)c2cc(Cl)ccc21" , which call appears in the assay record?
Ans. inactive

====

tested on: HCT-116; assay: NCI tumour cell line growth inhibition, 48 h
Activity calls are given as the source filed them. Cut-off read from the data, not from the text of the source: active = GI50 up to about 1.1 µM and inactive = higher.
Write down the outcome that applies. Available outcomes: label 1 = active, label 0 = inactive

Use these answered entries as a reference point.
>  <MOLECULE>
O=C1C=CC2(O[C@H](c3ccccc3)[C@@H](c3ccccc3)O2)C(SC(=O)c2ccccc2)C1 (stereo partly drawn)

>  <LABEL CLASS>
label 1

$$$$
>  <MOLECULE>
OCC1CCCC(n2cnc3c(S)ncnc32)O1 (stereo not drawn)

>  <LABEL CLASS>
label 0

$$$$
>  <MOLECULE>
CC(C)(C)OC(=O)NC(Cc1ccccc1)NC(=O)NC(=O)OCc1ccccc1 (stereo not drawn)

>  <LABEL CLASS>
label 0

$$$$
>  <MOLECULE>
O=C(NO)NCCCl

>  <LABEL CLASS>
label 0

$$$$
>  <MOLECULE>
Cc1ccc(S(=O)(=O)NC(=O)C2=C3SCCN3C(=O)N(S(=O)(=O)c3ccc(C)cc3)C2c2ccccc2)cc1 (stereo not drawn)

>  <LABEL CLASS>
label 0

$$$$

Kindly consider the entry below.
Qu. For "Cc1ccccc1-c1nc2c(C(=O)NCCN(C)C)cccc2[nH]1" , which call appears in the assay record?
Ans. label 0

====

system: SF-539; assay: NCI tumour cell line growth inhibition, 48 h
Activity calls are given as the source filed them. Cut-off read from the data, not from the text of the source: active = GI50 up to about 1.1 µM and inactive = higher.
Write down the outcome that applies. Available outcomes: class 1 (active), class 0 (inactive)

>  <MOLECULE>
Cc1c(C(=O)C/C(=N/NC(=O)C[n+]2ccccc2)C(=O)Nc2ccccc2)[n+]([O-])c2ccccc2[n+]1[O-]

>  <TESTED ON>
SF-539

>  <LABEL CLASS>
class 0

$$$$

Qu. For c1ccc2c(c1)nc1n2C2CCC(C2)N1 (stereo unspecified) , which call appears in the assay record?
Ans. class 0

Qu. For CC1=NN(c2ccccc2)C(=O)C1C(=O)C(=O)Nc1ccc(C)cc1C (stereo unspecified) , which call appears in the assay record?
Ans. class 0

Qu. For "C=C1C(=O)O[C@@H]2[C@H]1CC[C@H](C)[C@]1(O)CCC(=O)[C@@]21C" , which call appears in the assay record?
Ans. class 0

====

tested on: HT-29; test: NCI tumour cell line growth inhibition, 48 h
Activity calls are given as the source filed them. No stated cut-off is given here; in the data, active = GI50 up to about 1.1 µM and inactive = higher.
QUANTITY KIND: GI50

Consider the reported GI50 for these molecules:
>  <MOLECULE>
CC1(C)O[C@@H](CP(c2cccc3ccccc23)c2cccc3ccccc23)[C@H](CP(c2cccc3ccccc23)c2cccc3ccccc23)O1

>  <TESTED ON>
HT-29

>  <GI50>
> 100 µM (inactive)

$$$$
>  <MOLECULE>
Nc1nc(O)c2c(ncn2CC(O)CO)n1 (stereo not given)

>  <TESTED ON>
HT-29

>  <GI50>
> 100 µM (inactive)

$$$$
>  <MOLECULE>
CC(=O)N1C(=O)C(=O)c2cc(Cl)ccc21

>  <TESTED ON>
HT-29

>  <GI50>
> 100 µM (inactive)

$$$$

# batch: return GI50 for each of the 2 molecules below
1. Cc1ccc(NC(=O)CC(=O)n2nc(-c3ccccc3)c(/N=N/c3ccc(Cl)cc3)c2-c2ccccc2)cc1
2. N#CC(C#N)=C1NC(=O)CC(=O)N1

Ans.
17.9 µM (inactive)
> 100 µM (inactive)

====

tested on: A498; assay: NCI tumour cell line growth inhibition, 48 h
The source made the active and inactive calls. Cut-off read from the data, not from the text of the source: active = GI50 up to about 1.1 µM and inactive = higher.
QUANTITY KIND: GI50

# batch: return GI50 for each of the 4 compounds below
1. Nc1c(C(=O)O)nnc2cc(Cl)ccc12
2. COc1cc2c3c4[n+](cc2c(OC)c1OC)CCC4CCC3 (configuration not stated)
3. O=C(NC(Nc1ccc(F)c(Cl)c1)(C(F)(F)F)C(F)(F)F)C(C(F)(F)F)C(F)(F)F
4. c1ccc2c(c1)CCN1CCc3ccccc3C1C2 (configuration not stated)

Ans.
1: 85.3 µM (inactive); 2: > 100 µM (inactive); 3: 44.3 µM (inactive); 4: > 100 µM (inactive)

# batch: return GI50 for each of the 2 compounds below
1. COc1c(OC)c(N)c2cc(C)c(=O)c(C)cc2c1N
2. O=C(CSCC(=O)N/N=C/c1cccc(OCc2ccccc2)c1)N/N=C/c1cccc(OCc2ccccc2)c1

Ans.
1. > 100 µM (inactive)
2. > 44.3 µM (inactive)

====

system: LOX IMVI; experiment: NCI tumour cell line growth inhibition, 48 h
Calls of active or inactive are those of the source. Cut-off read from the data, not from the text of the source: active = GI50 up to about 1.1 µM and inactive = higher.
Would you mind telling me the reported GI50 of each entry?

>  <COMPOUND>
O=[N+]([O-])C1C2C=CC(C2)[C@H]1c1ccco1 (stereo not given in full)

>  <GI50>
> 100 µM (inactive)

$$$$
>  <COMPOUND>
O=C(O)Cn1nnc2c(=O)[nH][nH]c(=O)c21

>  <GI50>
> 100 µM (inactive)

$$$$
>  <COMPOUND>
COc1cc(-c2nn3c(=O)n(-c4ccc(Cl)cc4)c(=O)nc3s2)cc(OC)c1OC

>  <GI50>
18.5 µM (inactive)

$$$$
>  <COMPOUND>
C=C1CC[C@H]2C(C)=CC[C@H]3C(=C)C(=O)O[C@@H]3[C@@H]12 [EREMANTHIN]

>  <GI50>
> 100 µM (inactive)

$$$$

Now, please, on to the next compound.
Qu. Return reported GI50; argument: "Cc1nn(-c2ccccc2)c(-c2ccccc2[N+](=O)[O-])c1CC#N"
Ans. > 100 µM (inactive)
